Collected pEC50 values appear next to each entry.
Experiment: cells
Conditions: Homo sapiens, HEK-293T
Description: Agonist activity at human STING AQ expressed in 293T cells by digitonin cell based assay
pEC50: −log10 of the molar value.

{"sampleSmiles": "Nc1nc2c(ncn2[C@@H]2O[C@@H]3COP(=O)(O)O[C@H]4[C@@H](O)[C@H](n5cc(-c6cc7ccccc7s6)c6c(N)ncnc65)O[C@@H]4COP(=O)(O)O[C@@H]2[C@@H]3O)c(=O)[nH]1", "pEC50": 6.48}
{"sampleSmiles": "Nc1nc2c(ncn2[C@@H]2O[C@@H]3COP(=O)(O)O[C@H]4[C@@H](O)[C@H](n5cc(-c6ccc(-c7ccc8ccccc8c7)cc6)c6c(N)ncnc65)O[C@@H]4COP(=O)(O)O[C@@H]2[C@@H]3O)c(=O)[nH]1", "pEC50": 6.80}
{"sampleSmiles": "Nc1nc2c(ncn2[C@@H]2O[C@@H]3COP(=O)(O)O[C@H]4[C@@H](O)[C@H](n5cc(-c6cccc7ccccc67)c6c(N)ncnc65)O[C@@H]4COP(=O)(O)O[C@@H]2[C@@H]3O)c(=O)[nH]1", "pEC50": 6.33}
{"sampleSmiles": "Nc1nc2c(ncn2[C@@H]2O[C@@H]3COP(=O)(O)O[C@H]4[C@@H](O)[C@H](n5cc(-c6ccccc6)c6c(N)ncnc65)O[C@@H]4COP(=O)(O)O[C@H]3[C@H]2O)c(=O)[nH]1", "pEC50": 6.55}
{"sampleSmiles": "Nc1nc2c(ncn2[C@@H]2O[C@@H]3COP(=O)(O)O[C@H]4[C@@H](O)[C@H](n5cc(-c6ccccc6)c6c(N)ncnc65)O[C@@H]4COP(=O)(O)O[C@@H]2[C@@H]3O)c(=O)[nH]1", "pEC50": 6.51}

====

Collected pEC50 values appear next to each entry.
Test: cells
Conditions: Homo sapiens, HEK-293T
Description: Agonist activity at human STING REF expressed in 293T cells by digitonin cell based assay
pEC50: −log10 of the molar value.

{"sampleSmiles": "Nc1nc2c(ncn2[C@@H]2O[C@@H]3COP(=O)(O)O[C@H]4[C@@H](O)[C@H](n5cc(-c6ccc(-c7ccccc7)cc6)c6c(N)ncnc65)O[C@@H]4COP(=O)(O)O[C@@H]2[C@@H]3O)c(=O)[nH]1", "relationOperator": "=", "pEC50": 6.46}
{"sampleSmiles": "Nc1ncnc2c1c(-c1ccccc1)cn2[C@@H]1O[C@@H]2COP(=O)(O)O[C@@H]3[C@H](O)[C@@H](COP(=O)(O)O[C@H]2[C@H]1O)O[C@H]3n1cc(-c2ccccc2)c2c(N)ncnc21", "relationOperator": "<", "pEC50": 4.35}
{"sampleSmiles": "Nc1nc2c(ncn2[C@@H]2O[C@@H]3COP(=O)(O)O[C@H]4[C@@H](O)[C@H](n5cc(-c6ccc7c8c(cccc68)CC7)c6c(N)ncnc65)O[C@@H]4COP(=O)(O)O[C@@H]2[C@@H]3O)c(=O)[nH]1", "relationOperator": "<", "pEC50": 4.35}
{"sampleSmiles": "Nc1nc2c(ncn2[C@@H]2O[C@@H]3COP(=O)(O)O[C@H]4[C@@H](O)[C@H](n5cc(-c6cc7ccccc7o6)c6c(N)ncnc65)O[C@@H]4COP(=O)(O)O[C@@H]2[C@@H]3O)c(=O)[nH]1", "relationOperator": "=", "pEC50": 6.48}

====

Collected pEC50 values appear next to each entry.
Target: UniProt Q86WV6
Sequence (Q86WV6 whole entry): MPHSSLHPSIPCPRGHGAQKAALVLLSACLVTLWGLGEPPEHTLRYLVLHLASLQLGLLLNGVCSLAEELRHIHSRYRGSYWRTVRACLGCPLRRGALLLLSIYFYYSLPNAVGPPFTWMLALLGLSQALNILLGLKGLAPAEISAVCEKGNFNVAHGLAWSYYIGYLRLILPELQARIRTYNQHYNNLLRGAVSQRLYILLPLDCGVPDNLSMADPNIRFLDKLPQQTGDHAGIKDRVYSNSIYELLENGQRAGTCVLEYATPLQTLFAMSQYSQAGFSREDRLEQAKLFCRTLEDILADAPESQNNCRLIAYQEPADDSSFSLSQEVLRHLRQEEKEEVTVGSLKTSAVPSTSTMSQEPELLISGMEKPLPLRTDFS
Assay: Agonist activity at human wild type STING expressed in 293T cells by digitonin cell based assay
Design: species or system HEK293T
pEC50: −log10 of the molar value.

{"sampleSmiles": "Nc1nc2c(ncn2[C@@H]2O[C@@H]3COP(=O)(O)O[C@H]4[C@@H](O)[C@H](n5cc(-c6cc7ccccc7c7ccccc67)c6c(N)ncnc65)O[C@@H]4COP(=O)(O)O[C@@H]2[C@@H]3O)c(=O)[nH]1", "relationOperator": "=", "pEC50": 7.21}
{"sampleSmiles": "Nc1nc2c(ncn2[C@@H]2O[C@@H]3COP(=O)(O)O[C@H]4[C@@H](O)[C@H](n5cc(-c6cc7ccccc7o6)c6c(N)ncnc65)O[C@@H]4COP(=O)(O)O[C@@H]2[C@@H]3O)c(=O)[nH]1", "relationOperator": "=", "pEC50": 7.12}
{"sampleSmiles": "Nc1nc2c(ncn2[C@@H]2O[C@@H]3COP(=O)(O)O[C@H]4[C@@H](O)[C@H](n5cc(-c6ccc7ccccc7c6)c6c(N)ncnc65)O[C@@H]4COP(=O)(O)O[C@@H]2[C@@H]3O)c(=O)[nH]1", "relationOperator": "=", "pEC50": 7.32}
{"sampleSmiles": "Nc1nc2c(ncn2[C@@H]2O[C@@H]3COP(=O)(O)O[C@@H]4[C@H](O)[C@@H](COP(=O)(O)O[C@@H]2[C@@H]3O)O[C@H]4n2cnc3c(N)ncnc32)c(=O)[nH]1", "relationOperator": "=", "pEC50": 6.59}
{"sampleSmiles": "Nc1ncnc2c1c(-c1ccccc1)cn2[C@@H]1O[C@@H]2COP(=O)(O)O[C@@H]3[C@H](O)[C@@H](COP(=O)(O)O[C@H]2[C@H]1O)O[C@H]3n1cc(-c2ccccc2)c2c(N)ncnc21", "relationOperator": "<", "pEC50": 4.35}
{"sampleSmiles": "Nc1nc2c(ncn2[C@@H]2O[C@@H]3COP(=O)(O)O[C@H]4[C@@H](O)[C@H](n5cc(-c6cc7ccccc7s6)c6c(N)ncnc65)O[C@@H]4COP(=O)(O)O[C@@H]2[C@@H]3O)c(=O)[nH]1", "relationOperator": "=", "pEC50": 7.46}
{"sampleSmiles": "Nc1nc2c(ncn2[C@@H]2O[C@@H]3COP(=O)(O)O[C@H]4[C@@H](O)[C@H](n5cc(-c6cccc7ccccc67)c6c(N)ncnc65)O[C@@H]4COP(=O)(O)O[C@@H]2[C@@H]3O)c(=O)[nH]1", "relationOperator": "=", "pEC50": 5.96}
{"sampleSmiles": "Nc1nc2c(ncn2[C@@H]2O[C@@H]3COP(=O)(O)O[C@H]4[C@@H](O)[C@H](n5cc(-c6ccccc6)c6c(N)ncnc65)O[C@@H]4COP(=O)(O)O[C@@H]2[C@@H]3O)c(=O)[nH]1", "relationOperator": "=", "pEC50": 7.20}
{"sampleSmiles": "Nc1nc2c(ncn2[C@@H]2O[C@@H]3COP(=O)(O)O[C@H]4[C@@H](O)[C@H](n5cc(-c6ccc7c8c(cccc68)CC7)c6c(N)ncnc65)O[C@@H]4COP(=O)(O)O[C@@H]2[C@@H]3O)c(=O)[nH]1", "relationOperator": "=", "pEC50": 5.94}
{"sampleSmiles": "Nc1nc2c(ncn2[C@@H]2O[C@@H]3COP(=O)(O)O[C@H]4[C@@H](O)[C@H](n5cc(-c6cccc7c6oc6ccccc67)c6c(N)ncnc65)O[C@@H]4COP(=O)(O)O[C@@H]2[C@@H]3O)c(=O)[nH]1", "relationOperator": "=", "pEC50": 6.44}

====

Test: cells
Details: Homo sapiens, HEK-293T
pEC50: −log10 of the molar value.
assayMetric: pEC50

{"sampleSmiles": "Nc1nc2c(ncn2[C@@H]2O[C@@H]3COP(=O)(O)O[C@H]4[C@@H](O)[C@H](n5cc(-c6cc7ccccc7c7ccccc67)c6c(N)ncnc65)O[C@@H]4COP(=O)(O)O[C@@H]2[C@@H]3O)c(=O)[nH]1", "relationOperator": "<", "observedValue": 4.35}
{"sampleSmiles": "Nc1nc2c(ncn2[C@@H]2O[C@@H]3COP(=O)(O)O[C@H]4[C@@H](O)[C@H](n5cc(-c6ccccc6)c6c(N)ncnc65)O[C@@H]4COP(=O)(O)O[C@@H]2[C@@H]3O)c(=O)[nH]1", "relationOperator": "=", "observedValue": 5.23}
{"sampleSmiles": "Nc1nc2c(ncn2[C@@H]2O[C@@H]3COP(=O)(O)O[C@H]4[C@@H](O)[C@H](n5cc(-c6cc7ccccc7s6)c6c(N)ncnc65)O[C@@H]4COP(=O)(O)O[C@@H]2[C@@H]3O)c(=O)[nH]1", "relationOperator": "=", "observedValue": 6.46}
{"sampleSmiles": "Nc1nc2c(c(-c3ccccc3)cn2[C@@H]2O[C@@H]3COP(=O)(O)O[C@H]4[C@@H](O)[C@H](n5cc(-c6ccccc6)c6c(N)ncnc65)O[C@@H]4COP(=O)(O)O[C@@H]2[C@@H]3O)c(=O)[nH]1", "relationOperator": "=", "observedValue": 4.71}
{"sampleSmiles": "Nc1nc2c(ncn2[C@@H]2O[C@@H]3COP(=O)(O)O[C@H]4[C@@H](O)[C@H](n5cc(-c6ccc(-c7ccc8ccccc8c7)cc6)c6c(N)ncnc65)O[C@@H]4COP(=O)(O)O[C@@H]2[C@@H]3O)c(=O)[nH]1", "relationOperator": "=", "observedValue": 6.00}
{"sampleSmiles": "Nc1nc2c(ncn2[C@@H]2O[C@@H]3COP(=O)(O)O[C@@H]4[C@H](O)[C@@H](COP(=O)(O)O[C@@H]2[C@@H]3O)O[C@H]4n2cnc3c(N)ncnc32)c(=O)[nH]1", "relationOperator": "=", "observedValue": 4.23}
{"sampleSmiles": "Nc1nc2c(ncn2[C@@H]2O[C@@H]3COP(=O)(O)O[C@H]4[C@@H](O)[C@H](n5cc(-c6ccccc6)c6c(N)ncnc65)O[C@@H]4COP(=O)(O)O[C@H]3[C@H]2O)c(=O)[nH]1", "relationOperator": "=", "observedValue": 4.98}
{"sampleSmiles": "Nc1nc2c(ncn2[C@@H]2O[C@@H]3COP(=O)(O)O[C@H]4[C@@H](O)[C@H](n5cc(-c6ccc7ccccc7c6)c6c(N)ncnc65)O[C@@H]4COP(=O)(O)O[C@@H]2[C@@H]3O)c(=O)[nH]1", "relationOperator": "=", "observedValue": 5.85}
{"sampleSmiles": "Nc1nc2c(ncn2[C@@H]2O[C@@H]3COP(=O)(O)O[C@H]4[C@@H](O)[C@H](n5cc(-c6cccc7c6oc6ccccc67)c6c(N)ncnc65)O[C@@H]4COP(=O)(O)O[C@@H]2[C@@H]3O)c(=O)[nH]1", "relationOperator": "=", "observedValue": 5.05}
{"sampleSmiles": "Nc1nc2c(ncn2[C@@H]2O[C@@H]3COP(=O)(O)O[C@H]4[C@@H](O)[C@H](n5cc(-c6cccc7ccccc67)c6c(N)ncnc65)O[C@@H]4COP(=O)(O)O[C@@H]2[C@@H]3O)c(=O)[nH]1", "relationOperator": "=", "observedValue": 4.72}
